- Test system: Mfn2 null MEFs
- assay info: Mitochondrial elongation (aspect ratio) fusogenicity assay
- Type: cell-based, mouse
- recorded conditions: Mfn2 null MEFs, overnight; treatment with 1 μM compound (footnote)
quantity measured: Aspect ratio (MEAN ± SEM)

Ask: Returns the measured Aspect ratio (MEAN ± SEM) for the input compound. Input: CC(Sc1nc(CN2CCOCC2)nc2ccccc12)C(=O)Nc1cccc(C(F)(F)F)c1 (stereo not drawn) [drawing 227]
Result: 5.6 ± 0.6

Ask: Same again, this time with Cc1ccc(N2C[C@@H]3CC[C@H](C2)N(Cc2ccccn2)C3=O)nn1 [drawing 245]
Result: 3.0 ± 0.4

Ask: Now consider O=C(NCCSCc1ccsc1)C1CC2CCCC(C1)C2=O (stereo not drawn) [drawing 241] .
Result: 4.4 ± 0.6

Ask: Thanks! And CCC(C)NC(=O)c1ccccc1NC(=O)C(C)Sc1ccc(C)cc1 (stereo not drawn) [drawing 236] ?
Result: 3.3 ± 0.4

Ask: Same question for O=C(CSCc1ccc(F)cc1)N1CCc2c([nH]c3ccccc23)C1c1ccc(Cl)cc1 (stereo not drawn) [drawing 202] please.
Result: 4.7 ± 0.9

Ask: Next up: CCC(C)C1N=C2c3ccccc3N=C(SC(C)C(=O)Nc3cc(OC)cc(OC)c3)N2C1=O (stereo not drawn) [drawing 234]
Result: 3.2 ± 0.3

Ask: Same question for CC(Sc1ccc(Br)cc1)C(=O)Nc1ccc2c(c1)OCCO2 (stereo not drawn) [drawing 239] please.
Result: 3.2 ± 0.5

Ask: Same question for Cc1ccc(-c2noc(CSCCCC(=O)Nc3c(C)cccc3C)n2)cc1F [drawing 209] please.
Result: 3.9 ± 0.5

Ask: Now consider O=C(Nc1cc(CSCCOC(=O)C2C3CCCCC32)ccn1)C1C2CCCCC21 (stereo not drawn) and answer again.
Result: 4.8 ± 1.0

###

- Test system: Mfn2 null MEFs
- assay info: Mitochondrial elongation (aspect ratio) fusogenicity assay
- Assay type: cell-based, mouse
- recorded conditions: Mfn2 null MEFs, overnight; treatment with 1 μM compound (footnote)
Please mark class 1 if the recorded Aspect ratio (MEAN ± SEM) is equal to or greater than 4, and class 0 if it falls below.

Ask: // inclusive: Aspect ratio (MEAN ± SEM) at least 4? input: CC1CCCCC1NC(=O)NCCSCc1ccccc1 (centres unmarked) [drawing 224]
Result: class 1

Ask: Same question for O=C(NCCSCc1cccc(Cl)c1)C1CCCCn2nnnc21 (centres unmarked) [drawing 222] please.
Result: class 0

Ask: Another: `Cc1cccc(NC(=O)CSCC(=O)N(Cc2ccc(N(C)C)cc2)C(C)C)c1`
Result: class 1

Ask: Can you handle Cc1cccc(C)c1NC(=O)CCCSCc1ncc(C(C)C)o1 [drawing 211] next?
Result: class 0

Ask: Also check O=C1CC(SCCc2nc3ccccc3[nH]2)C(=O)N1c1cccc(F)c1 (centres unmarked) [drawing 199]
Result: class 1

###

- Tested on: Mfn2 null MEFs
- assay info: Mitochondrial elongation (aspect ratio) fusogenicity assay
- Assay type: cell-based, mouse
- recorded conditions: rank order of aspect ratio among 44 soluble library compounds
quantity measured: Fusogenicity Rank
Response field accepts a number only; no unit should be typed.

Ask: Requested field: Fusogenicity Rank. Item: CCOC(=O)c1sc(NC(=O)C(CC)Sc2nnc3c(n2)[nH]c2ccccc23)nc1C (stereo not shown) [drawing 203]
Result: 13

Ask: Let us now turn to Cc1ccc(-n2nnnc2SC(C)c2nc(-c3nnc[nH]3)no2)cc1 (stereo not shown) [drawing 215]
Result: 27

Ask: Same for Cc1ccc(NC(=O)CC2SC(NC(c3ccc(C(C)C)cc3)c3c(O)[nH]c(=O)[nH]c3=O)=NC2=O)c(C)c1 (stereo not shown) [drawing 252]
Result: 35

Ask: Likewise for O=C(NCCSCc1ccc(Br)s1)C1CCCN(C(=O)c2cccs2)C1 (stereo not shown) [drawing 213] ?
Result: 9

###

- Tested on: Mfn2 null MEFs
- assay info: Mitochondrial elongation (aspect ratio) fusogenicity assay
- Format: cell-based, mouse
- recorded conditions: Mus musculus; increase in mitochondrial aspect ratio
pEC50: −log10 of the molar value.
quantity measured: pEC50

Ask: Field: pEC50 (Mfn2 null MEFs). Entry: `CCn1c(CCCNC(=O)NC2CCOCC2)nnc1C1CC1`
Result: ~8.52

Ask: Check CC1CCCCC1NC(=O)NCCSCc1ccccc1 (centres unmarked) too.
Result: 6.70 to 7.00

###

- System: Mfn2 null MEFs
- assay info: Mitochondrial elongation (aspect ratio) fusogenicity assay
- Format: cell-based, mouse
- Design: dose or concentration left out as unconfirmed
- recorded conditions: mitochondrial elongation relative to Cpd B (B01 = 100); Mfn2 null MEFs, compound overnight as printed (FIG. 48)
Task for the reader: assign each of the following compounds its reported % long compare to B.
Write down the numeric answer in % and omit the unit.

Ask: Need % long compare to B, item CC(C)C1=CC2C(=O)NC(CSCC(=O)NCc3ccccn3)=NC2S1 (stereo not drawn) [E02]
Result: 11

Ask: Then this compound: Cn1c(SCC(=O)Nc2sc3c(c2C(N)=O)CCC3)nnc1C(F)(F)F [1-B4]
Result: 10

Ask: Could you do the same for CC(/N=N/C(=N)SC1CC(=O)N(c2cccc(C(=O)O)c2)C1=O)c1ccccc1 (stereo not drawn) [C10] , please?
Result: 0

Ask: And the next one, CC(Sc1nnc(N2CCCCC2)n1-c1ccccc1)C(=O)Nc1sc2c(c1C(N)=O)CCC2 (stereo not drawn) [1-A12] ?
Result: −8

Ask: Now the same for Cc1ccc(SC2CCN(Cc3cc4n(n3)CCNC4)CC2)cc1 [D10]
Result: −7

Ask: What do you have for CC1CCc2c(sc(NC(=O)CSc3nnc(C4CC4)n3-c3ccccc3)c2C#N)C1 (stereo not drawn) [1-B2] ?
Result: −11

Ask: What do we get for CC(Sc1nnc(Cc2cccs2)n1C1CC1)C(=O)Nc1sc2c(c1C(N)=O)CCC2 (stereo not drawn) [1-G6] ?
Result: 9

Ask: # repeat for CC(Sc1nccn1Cc1ccccc1)C(=O)Nc1sc2c(c1C(N)=O)CCC2 (stereo not drawn) [1-G7]
Result: 3

Ask: How about CC(Sc1nnc(-c2cccs2)n1C1CC1)C(=O)Nc1sc2c(c1C(N)=O)CCC2 (stereo not drawn) [1-C12] ?
Result: 13

###

- Tested on: Mfn2 null MEFs
- assay info: Mitochondrial elongation (aspect ratio) fusogenicity assay
- Assay type: cell-based, mouse
- recorded conditions: rank order of aspect ratio among 44 soluble library compounds
Would you kindly list Fusogenicity Rank for each of these molecules?
Please give only the number in your answer, with no unit.

Ask: Give Mfn2 null MEFs Fusogenicity Rank for CCOc1ccccc1NC(=O)CSCc1cc(=O)c2ccc(C)c(C)c2[nH]1 [drawing 248]
Result: 24

Ask: How about this molecule: O=C(NCCSCc1ccccc1)C1CCCCO1 (stereo not drawn) [drawing 218]
Result: 30

Ask: Quick one: CC(Sc1nc(CN2CCOCC2)nc2ccccc12)C(=O)Nc1cccc(C(F)(F)F)c1 (stereo not drawn) [drawing 227]
Result: 7

Ask: # iterate: CC(Sc1nnc(N2CCOCC2)n1Cc1ccccc1)C(=O)Nc1ccc2[nH]c(=O)[nH]c2c1 (stereo not drawn) [drawing 223]
Result: 8

Ask: Again, but for CCC(C)NC(=O)c1ccccc1NC(=O)C(C)Sc1ccc(C)cc1 (stereo not drawn) [drawing 236]
Result: 29

Ask: // same read-out, input: O=C1CC(SCCc2nc3ccccc3[nH]2)C(=O)N1c1cccc(F)c1 (stereo not drawn) [drawing 199]
Result: 3

Ask: Try the molecule CC(Sc1nnc(N2CCOCC2)n1Cc1ccccc1)C(=O)Nc1ccc2c(c1)OCO2 (stereo not drawn) [drawing 242]
Result: 43

Ask: Also check CC1CCCCC1NC(=O)NCCSCc1ccccc1 (stereo not drawn) [A10]
Result: 4

Ask: Same question, Cc1ccc(C(C)C)c(OCCCSCc2nc3ccccc3[nH]2)c1 [drawing 200] this time
Result: 37

Ask: Next up: Cc1ccc2c(c1)SC(C(=O)NCc1ccc(N3CCCN(C)CC3)nc1)C2 (stereo not drawn) [drawing 212]
Result: 18

Ask: Now this one: CC(Sc1ccc(Br)cc1)C(=O)Nc1ccc2c(c1)OCCO2 (stereo not drawn) [drawing 239]
Result: 33

Ask: Here is the next molecule: O=C(CSCc1ccc(F)cc1)N1CCc2c([nH]c3ccccc23)C1c1ccc(Cl)cc1 (stereo not drawn) [drawing 202]
Result: 11

Ask: Let us now turn to COc1ccc(SC(C)C(=O)Nc2cc[nH]n2)cc1 (stereo not drawn) [drawing 201]
Result: 22

Ask: Another molecule: c1ccc(CSCCc2nc(C3CCOC3)no2)cc1 (stereo not drawn) [drawing 238]
Result: 28

Ask: Also need CC1CCCCC1NC(=O)NCCSCc1ccccc1 (stereo not drawn) [drawing 224] , thanks.
Result: 4

Ask: Further, for O=C(CSCCc1ccccn1)Nc1ccc(Cl)c(Cl)c1 [drawing 205] ?
Result: 41

Ask: # iterate: CC(C)C1=CC2C(=O)NC(CSCC(=O)NCc3ccccn3)=NC2S1 (stereo not drawn) [drawing 204]
Result: 21

Ask: Try this molecule next: Cc1ccc(-c2noc(CSCCCC(=O)Nc3c(C)cccc3C)n2)cc1F [drawing 209]
Result: 20

Ask: What about O=C(CSCC(=O)N1CCCc2ccccc21)Nc1ccccc1 [drawing 249] ?
Result: 44

Ask: Would you mind doing O=C(NCCSCc1ccsc1)C1CC2CCCC(C1)C2=O (stereo not drawn) [drawing 241] as well?
Result: 14

Ask: Here is the next molecule: Cc1nc[nH]c1CSCCNC(=O)C1CCN(C(=O)C2CCC2)CC1 [drawing 220]
Result: 40
